System: LO2 cells
Assay: CCK8 cell viability, normal cell line LO2
Assay type: cell-based, Human
Details: LO2 normal liver cells, 25 μM, 72 h
parameter_measured: Cell viability (%)
Give bare numbers, in %.

COc1c2n(cc(C(=O)Nc3cccc(-c4cn(-c5ccccc5C)nn4)c3)c1=O)CC1OCC(C)N1C2=O (stereo not shown) [Compound 5c] ... 73.79
COc1c2n(cc(C(=O)Nc3cccc(-c4cn(Cc5ccc(Cl)cc5)nn4)c3)c1=O)CC1OCC(C)N1C2=O (stereo not shown) [Compound 6f] ... 130.96
COc1c2n(cc(C(=O)Nc3cccc(-c4cn(-c5c(C)cc(C)cc5C)nn4)c3)c1=O)CC1OCC(C)N1C2=O (stereo not shown) [Compound 5l] ... 125.46
COc1c2n(cc(C(=O)Nc3cccc(-c4cn(-c5ccccc5Cl)nn4)c3)c1=O)CC1OCC(C)N1C2=O (stereo not shown) [Compound 5s] ... 122.75

I have 3 molecules here; please give me Cell viability for each one.
1. COc1c2n(cc(C(=O)Nc3cccc(-c4cn(-c5cccc(F)c5)nn4)c3)c1=O)CC1OCC(C)N1C2=O (stereo not shown) [Compound 5f]
2. COc1c2n(cc(C(=O)Nc3cccc(-c4cn(Cc5ccccc5C)nn4)c3)c1=O)CC1OCC(C)N1C2=O (stereo not shown) [Compound 6c]
3. COc1c2n(cc(C(=O)Nc3cccc(-c4cn(-c5ccccc5Br)nn4)c3)c1=O)CC1OCC(C)N1C2=O (stereo not shown) [Compound 5m]

### Response
1: 130.35; 2: 103.41; 3: 111.3

* * *

Test system: H1299 cells
Test: CCK8 cell viability, H1299
Format: cell-based, Human
Settings: H1299, 25 μM, 48 h
parameter_measured: Cell viability (%)
Give bare numbers, in %.

I have 3 compounds here; please give me Cell viability for each one.
1. COc1c2n(cc(C(=O)Nc3cccc(-c4cn(-c5ccccc5)nn4)c3)c1=O)CC1OCC(C)N1C2=O (centres unmarked)
2. COc1ccccc1-n1cc(-c2cccc(NC(=O)c3cn4c(c(OC)c3=O)C(=O)N3C(C)COC3C4)c2)nn1 (centres unmarked)
3. COc1c2n(cc(C(=O)Nc3cccc(-c4cn(Cc5ccccc5C)nn4)c3)c1=O)CC1OCC(C)N1C2=O (centres unmarked)

### Response
[114.26, 117.81, 110.58]

* * *

System: H1299 cells
Assay: CCK8 cell viability, H1299
Type: cell-based, Human
Settings: H1299, 25 μM, 48 h
Procedure: Human lung cancer cell line H460 and H1299, human liver normal cell line LO2 were bought from ATCC. DMEM or RPMI 1640 was used as the cell culture medium with 10% FBS and 1% penicillin/streptomycin. […] Cell viability and IC50 values were determined using the CCK8 assay kit. […] The absorbance at 450 nm was measured using a microplate spectrophotometer (Thermo). Cell viability was calculated, with the untreated group taken as 100%. […]
parameter_measured: Cell viability (%)
Answers are plain numbers, in %.

Check out these entries, answers already filled in.
COc1c2n(cc(C(=O)Nc3cccc(-c4cn(-c5ccccc5C(F)(F)F)nn4)c3)c1=O)CC1OCC(C)N1C2=O (stereo not drawn) ... 121.35
CCc1ccccc1-n1cc(-c2cccc(NC(=O)c3cn4c(c(OC)c3=O)C(=O)N3C(C)COC3C4)c2)nn1 (stereo not drawn) ... 117.48

I have 7 molecules here; please give me Cell viability for each one.
1. COc1c2n(cc(C(=O)Nc3cccc(-c4cn(Cc5ccc(C(F)(F)F)cc5)nn4)c3)c1=O)CC1OCC(C)N1C2=O (stereo not drawn)
2. COc1c2n(cc(C(=O)Nc3cccc(-c4cn(Cc5ccc(Cl)cc5)nn4)c3)c1=O)CC1OCC(C)N1C2=O (stereo not drawn)
3. COc1c2n(cc(C(=O)Nc3cccc(-c4cn(Cc5cccc(F)c5)nn4)c3)c1=O)CC1OCC(C)N1C2=O (stereo not drawn)
4. COc1c2n(cc(C(=O)Nc3cccc(-c4cn(-c5cccc(Cl)c5)nn4)c3)c1=O)CC1OCC(C)N1C2=O (stereo not drawn)
5. COc1c2n(cc(C(=O)Nc3cccc(-c4cn(-c5ccc(F)cc5)nn4)c3)c1=O)CC1OCC(C)N1C2=O (stereo not drawn)
6. COc1cccc(Cn2cc(-c3cccc(NC(=O)c4cn5c(c(OC)c4=O)C(=O)N4C(C)COC4C5)c3)nn2)c1 (stereo not drawn)
7. COc1c2n(cc(C(=O)Nc3cccc(-c4cn(-c5ccccc5OC(F)(F)F)nn4)c3)c1=O)CC1OCC(C)N1C2=O (stereo not drawn)

### Response
1: 113.99; 2: 104.20; 3: 99.47; 4: 107.23; 5: 115.05; 6: 91.06; 7: 90.47

// provenance: paper PMC10547880
